Would you mind telling me the reported Bliss excess of each entry?
Tested on: M059J (Glioblastoma)
assayNotes: Bliss excess, mean over the matrix (fraction); higher = more synergy
Give bare numbers.

Here are 2 compounds together with their reported answers.
NC1(C(=O)N[C@@H](CCO)c2ccc(Cl)cc2)CCN(c2ncnc3[nH]ccc23)CC1 [Capivasertib] + CC(=O)c1c(C)c2cnc(Nc3ccc(N4CCNCC4)cn3)nc2n(C2CCCC2)c1=O [Palbociclib] (first compound max 10 µM, 7x7, partner max 10 µM) :: -0.0489
N#Cc1cnc(Nc2cc(NC[C@H]3CNCCO3)c(C(F)(F)F)cn2)cn1 [SRA737] + CCc1c2c(nc3ccc(O)cc13)-c1cc3c(c(=O)n1C2)COC(=O)[C@]3(O)CC [SN-38] (first compound max 10 µM, 7x7, partner max 0.3 µM) :: -0.0326

Please examine the following record next.
Task item: Please look up its Bliss excess: CC1(C)CCC(CN2CCN(c3ccc(C(=O)NS(=O)(=O)c4ccc(NCC5CCOCC5)c([N+](=O)[O-])c4)c(Oc4cnc5[nH]ccc5c4)c3)CC2)=C(c2ccc(Cl)cc2)C1 [Venetoclax] + CS(=O)(=O)CCNCc1ccc(-c2ccc3ncnc(Nc4ccc(OCc5cccc(F)c5)c(Cl)c4)c3c2)o1 [Lapatinib] (first compound max 1 µM, 7x7, partner max 10 µM)
Reply: -0.0225

###

Tested on: RPMI-8226 (Plasma Cell Myeloma)
assayNotes: Bliss excess, mean over the matrix (fraction); higher = more synergy
measuredEndpoint: Bliss excess
Give bare numbers.

Recorded Bliss excess, per entry:
Cc1c2c(nn1C)CSCc1cc(n(C)n1)CSc1cc(c3ccccc3c1)OCCCc1c(C(=O)O)n(C)c3c-2c(Cl)ccc13 [AZD5991] + Cn1cnc2c(F)c(Nc3ccc(Br)cc3Cl)c(C(=O)NOCCO)cc21 [Selumetinib] (first compound max 1 µM, 7x7, partner max 3 µM) :: 0.0045
CN(CCO)CC[C@H](CSc1ccccc1)Nc1ccc(S(=O)(=O)NC(=O)c2ccc(N3CCC([C@@H](O)c4ccccc4-c4ccc(Cl)cc4)CC3)cc2)cc1S(=O)(=O)C(F)(F)F [AZD4320] + CCN(CCO)CCCOc1ccc2c(Nc3cc(CC(=O)Nc4cccc(F)c4)[nH]n3)ncnc2c1 [AZD2811] (first compound max 1 µM, 7x7, partner max 1 µM) :: 0.0003

Task item: Quick check: Bliss excess of CN(CCO)CC[C@H](CSc1ccccc1)Nc1ccc(S(=O)(=O)NC(=O)c2ccc(N3CCC([C@@H](O)c4ccccc4-c4ccc(Cl)cc4)CC3)cc2)cc1S(=O)(=O)C(F)(F)F [AZD4320] + CN(C)CCCOc1ccc(-c2ccc3ncc4c(c3c2)n(C2CCOCC2)c(=O)n4C)cn1 [AZD0156] (first compound max 1 µM, 7x7, partner max 1 µM) ?
Reply: 0.0137

###

Tested on: SK-GT-4 (Esophageal Adenocarcinoma)
assayNotes: combination Emax (second highest fraction inhibited in the dose matrix, 72 h); higher = more inhibition; extreme values may be limits of the assay
Please provide measured combination Emax for the entries that follow.
Give bare numbers.

O=C(c1cc(Cc2n[nH]c(=O)c3ccccc23)ccc1F)N1CCN(C(=O)C2CC2)CC1 [Olaparib] + COc1nnc2ccc(N3CCC(c4ccc(OCCN5CCN(C)C(=O)[C@H]5C)cc4)CC3)nn12 [AZD5153] (first compound max 10 µM, 7x7, partner max 1 µM) :: 0.426
Cn1cnc2c(F)c(Nc3ccc(Br)cc3Cl)c(C(=O)NOCCO)cc21 [Selumetinib] + CCN(CCO)CCCOc1ccc2c(Nc3cc(CC(=O)Nc4cccc(F)c4)[nH]n3)ncnc2c1 [AZD2811] (first compound max 10 µM, 7x7, partner max 1 µM) :: 0.533
CN(CCO)CC[C@H](CSc1ccccc1)Nc1ccc(S(=O)(=O)NC(=O)c2ccc(N3CCC([C@@H](O)c4ccccc4-c4ccc(Cl)cc4)CC3)cc2)cc1S(=O)(=O)C(F)(F)F [AZD4320] + Cn1cnc2c(F)c(Nc3ccc(Br)cc3Cl)c(C(=O)NOCCO)cc21 [Selumetinib] (first compound max 1 µM, 7x7, partner max 3 µM) :: 0.624

Task item: Quick one: combination Emax for NC1(C(=O)N[C@@H](CCO)c2ccc(Cl)cc2)CCN(c2ncnc3[nH]ccc23)CC1 [Capivasertib] + CC(C)n1c(=O)n(C)c2cnc3cc(F)c(-c4ccc(OCCCN5CCCCC5)nc4)cc3c21 [AZD1390] (first compound max 10 µM, 7x7, partner max 0.3 µM) ?
Reply: 0.506

###

Test system: SK-GT-2 (Gastric Carcinoma)
assayNotes: Bliss excess, mean over the matrix (fraction); higher = more synergy
I'd appreciate it if you could supply Bliss excess values for the items below.
Numbers only.

C[C@@H](c1ccc2nccn2c1)n1nnc2ncc(-c3cnn(C)c3)nc21 [Savolitinib] + CC1(C)CCC(CN2CCN(c3ccc(C(=O)NS(=O)(=O)c4ccc(NCC5CCOCC5)c([N+](=O)[O-])c4)c(Oc4cnc5[nH]ccc5c4)c3)CC2)=C(c2ccc(Cl)cc2)C1 [Venetoclax] (first compound max 1 µM, 7x7, partner max 1 µM) :: -0.0144
NC1(C(=O)N[C@@H](CCO)c2ccc(Cl)cc2)CCN(c2ncnc3[nH]ccc23)CC1 [Capivasertib] + COc1nnc2ccc(N3CCC(c4ccc(OCCN5CCN(C)C(=O)[C@H]5C)cc4)CC3)nn12 [AZD5153] (first compound max 10 µM, 7x7, partner max 1 µM) :: 0.0448
COc1nnc2ccc(N3CCC(c4ccc(OCCN5CCN(C)C(=O)[C@H]5C)cc4)CC3)nn12 [AZD5153] + Cn1cnc2c(F)c(Nc3ccc(Br)cc3Cl)c(C(=O)NOCCO)cc21 [Selumetinib] (first compound max 1 µM, 7x7, partner max 10 µM) :: 0.0006

For each of the items listed, what is its Bliss excess?
1. CN(CCO)CC[C@H](CSc1ccccc1)Nc1ccc(S(=O)(=O)NC(=O)c2ccc(N3CCC([C@@H](O)c4ccccc4-c4ccc(Cl)cc4)CC3)cc2)cc1S(=O)(=O)C(F)(F)F [AZD4320] + CCN(CCO)CCCOc1ccc2c(Nc3cc(CC(=O)Nc4cccc(F)c4)[nH]n3)ncnc2c1 [AZD2811] (first compound max 1 µM, 7x7, partner max 1 µM)
2. CS(=O)(=O)CCNCc1ccc(-c2ccc3ncnc(Nc4ccc(OCc5cccc(F)c5)c(Cl)c4)c3c2)o1 [Lapatinib] + C[C@@H](Oc1cc(-c2cnn(C3CCNCC3)c2)cnc1N)c1c(Cl)ccc(F)c1Cl [Crizotinib] (first compound max 10 µM, 7x7, partner max 10 µM)
3. Cc1cc2ncnn2cc1Nc1ncc2c(n1)n(C1CCOCC1)c(=O)n2C [AZD7648] + CCN(CCO)CCCOc1ccc2c(Nc3cc(CC(=O)Nc4cccc(F)c4)[nH]n3)ncnc2c1 [AZD2811] (first compound max 10 µM, 7x7, partner max 1 µM)
4. Cn1cnc2c(F)c(Nc3ccc(Br)cc3Cl)c(C(=O)NOCCO)cc21 [Selumetinib] + CC(C)n1c(=O)n(C)c2cnc3cc(F)c(-c4ccc(OCCCN5CCCCC5)nc4)cc3c21 [AZD1390] (first compound max 10 µM, 7x7, partner max 0.3 µM)

Reply:
0.026
-0.0154
0.0137
-0.0423

###

Test system: DAN-G (Pancreatic Carcinoma)
assayNotes: combination Emax (second highest fraction inhibited in the dose matrix, 72 h); higher = more inhibition; extreme values may be limits of the assay
Please provide measured combination Emax for the entries that follow.
Numbers only.

NC1(C(=O)N[C@@H](CCO)c2ccc(Cl)cc2)CCN(c2ncnc3[nH]ccc23)CC1 [Capivasertib] + CCN(CCO)CCCOc1ccc2c(Nc3cc(CC(=O)Nc4cccc(F)c4)[nH]n3)ncnc2c1 [AZD2811] (first compound max 10 µM, 7x7, partner max 1 µM) :: 0.43

Task item: Requested read-out combination Emax, target or system DAN-G (Pancreatic Carcinoma), entry NC1(C(=O)N[C@@H](CCO)c2ccc(Cl)cc2)CCN(c2ncnc3[nH]ccc23)CC1 [Capivasertib] + COc1nnc2ccc(N3CCC(c4ccc(OCCN5CCN(C)C(=O)[C@H]5C)cc4)CC3)nn12 [AZD5153] (first compound max 10 µM, 7x7, partner max 1 µM)
Reply: 0.466

###

Test system: NCI-H929 (Plasma Cell Myeloma)
assayNotes: combination Emax (second highest fraction inhibited in the dose matrix, 72 h); higher = more inhibition; extreme values may be limits of the assay
measuredEndpoint: combination Emax

CN(CCO)CC[C@H](CSc1ccccc1)Nc1ccc(S(=O)(=O)NC(=O)c2ccc(N3CCC([C@@H](O)c4ccccc4-c4ccc(Cl)cc4)CC3)cc2)cc1S(=O)(=O)C(F)(F)F [AZD4320] + CCN(CCO)CCCOc1ccc2c(Nc3cc(CC(=O)Nc4cccc(F)c4)[nH]n3)ncnc2c1 [AZD2811] (first compound max 1 µM, 7x7, partner max 1 µM) :: 0.227
Cc1c2c(nn1C)CSCc1cc(n(C)n1)CSc1cc(c3ccccc3c1)OCCCc1c(C(=O)O)n(C)c3c-2c(Cl)ccc13 [AZD5991] + C1CN(CCC1(C(=O)N[C@@H](CCO)C2=CC=C(C=C2)Cl)N)C3=NC=NC4=C3C=CN4 [Capivasertib] (first compound max 1 µM, 7x7, partner max 3 µM) :: 1

Task item: Record lookup: for NCI-H929 (Plasma Cell Myeloma), what combination Emax belongs to O=C(c1cc(Cc2n[nH]c(=O)c3ccccc23)ccc1F)N1CCN(C(=O)C2CC2)CC1 [Olaparib] + Cc1c2c(nn1C)CSCc1cc(n(C)n1)CSc1cc(c3ccccc3c1)OCCCc1c(C(=O)O)n(C)c3c-2c(Cl)ccc13 [AZD5991] (first compound max 10 µM, 7x7, partner max 1 µM) ?
Reply: 1
